test.method.notes: chemical genetic growth profiling, strain panel (AID 1159580);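 also: tested at 20 µM; growth read once vehicle control cultures reached saturation at 30 °C; 1 = growth at the plate median or of vehicle wells; lower values mean less growth of the strain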
measurement.setup: S. cerevisiae deletion strains, growth OD, locus YCL011C, strain gbp2, hits give low values
About 2,000 (36%) of roughly 5,500 compounds were called active. Another 18% or so got no clear call; they are omitted. This is one part of the list.
parameter: normalized growth
Write no unit; give the number alone.

See these solved cases before continuing.
CC(=O)OCC(CCn1cnc2cnc(N)nc21)COC(C)=O; 0.994
CC(C)N(C(=O)CCl)c1ccccc1; 1.01

Request: Return value of normalized growth for input CC(=O)O[C@H]1C(=O)[C@@]2(C)C([C@H](OC(=O)c3ccccc3)[C@]3(O)C[C@H](OC(=O)[C@H](O)[C@@H](NC(=O)c4ccccc4)c4ccccc4)C(C)=C1C3(C)C)[C@]1(OC(C)=O)CO[C@@H]1C[C@@H]2O (stereo not given in full) , no commentary.
Response: 1.02

Request: Return value of normalized growth for input O=[N+]([O-])O[C@H]1CO[C@H]2[C@@H]1OC[C@H]2O[N+](=O)[O-] , no commentary.
Response: 0.99

Request: Return value of normalized growth for input CC(=O)O[C@H]1C(=O)[C@@]2(C)C([C@H](OC(=O)c3ccccc3)[C@]3(O)C[C@H](O)C(C)=C1C3(C)C)[C@]1(OC(C)=O)CO[C@@H]1C[C@@H]2O (stereo not given in full) , no commentary.
Response: 1
